# System: OVCAR-3 ovarian
# protocol.description: NCI-60 one-dose screen, 48 h (100 = growth as untreated, 0 = no growth, -100 = all killed)
# condition.summary: 10 µM unless noted
# Protocol: Growth inhibition of the OVCAR-3 human tumor cell line is measured as a screen for anti-cancer activity. Cells are grown in 96 well plates and exposed to the test compound for 48 hours. Compounds are tested at a single concentration, which is 10^-5 M for most compounds. The reported endpoint is percent growth (GI% or GIPRCNT), where numbers from 0 - 100% represent growth inhibition, and numbers from -100% - 0 represent cell death. For example, a value of 40 represents 60% growth inhibition. […]
The panel holds about 83,000 compounds, 20% with a hit somewhere; the sample as a whole holds those more often.
The following molecules are listed with their measured growth values.
measurement.name: growth (%)

>  <molecule>
CCN(CC)CCn1c2ccc(O)cc2c2sc3cc(O)ccc3c(=O)c21

>  <target.or.test.system>
OVCAR-3 ovarian

>  <measurement.name>
growth

>  <scale.unit>
%

>  <experimental.value>
41

$$$$
>  <molecule>
COc1c(B(O)O)cccc1-c1cc(C)c2c(ccc3[nH]ncc32)n1

>  <target.or.test.system>
OVCAR-3 ovarian

>  <measurement.name>
growth

>  <scale.unit>
%

>  <experimental.value>
113

$$$$
>  <molecule>
CC(C)(C)CC(C)(C)NC(=O)Nc1ncccc1OCc1ccccc1

>  <target.or.test.system>
OVCAR-3 ovarian

>  <measurement.name>
growth

>  <scale.unit>
%

>  <experimental.value>
98.5

$$$$
>  <molecule>
CN(C)CC1CCC(CN(C)C)C1=O (stereo not given)

>  <target.or.test.system>
OVCAR-3 ovarian

>  <measurement.name>
growth

>  <scale.unit>
%

>  <experimental.value>
132

$$$$
>  <molecule>
CCOC(=O)c1cc(C)n(-c2ccc(C(=O)O)cc2)c1C

>  <target.or.test.system>
OVCAR-3 ovarian

>  <measurement.name>
growth

>  <scale.unit>
%

>  <experimental.value>
115

$$$$
>  <molecule>
Ic1ccc(OCCCCn2ccnc2)cc1

>  <target.or.test.system>
OVCAR-3 ovarian

>  <measurement.name>
growth

>  <scale.unit>
%

>  <experimental.value>
39.2

$$$$
>  <molecule>
c1ccc(Cn2cc3c(c2)-c2oncc2CC3)cc1

>  <target.or.test.system>
OVCAR-3 ovarian

>  <measurement.name>
growth

>  <scale.unit>
%

>  <experimental.value>
-23.8

$$$$
>  <molecule>
COc1ccc(OC)c(-c2nc(SCC(=O)c3ccc(C#N)cc3)[nH]c(=O)c2C#N)c1

>  <target.or.test.system>
OVCAR-3 ovarian

>  <measurement.name>
growth

>  <scale.unit>
%

>  <experimental.value>
89.4

$$$$
>  <molecule>
COCCOc1cc2ncnc(N3CCN(c4cc(S(C)(=O)=O)c(C)cc4Cl)CC3)c2cc1OCCOC

>  <target.or.test.system>
OVCAR-3 ovarian

>  <measurement.name>
growth

>  <scale.unit>
%

>  <experimental.value>
96.1

$$$$
>  <molecule>
C[C@@H](CO)[C@@H]1CCC=C2CC[C@]3(C)[C@H](CC[C@@H]4[C@@]5(C)CCCNC(C)(C)[C@@H]5CC[C@]43C)[C@H]21

>  <target.or.test.system>
OVCAR-3 ovarian

>  <measurement.name>
growth

>  <scale.unit>
%

>  <experimental.value>
69.8

$$$$

----------
The following compounds are listed with their measured growth values.
# System: SR leukemia
# protocol.description: NCI-60 one-dose screen, 48 h (100 = growth as untreated, 0 = no growth, -100 = all killed)
# condition.summary: 10 µM unless noted
This is part of a sample that, as a whole, favours compounds with a hit. Of some 83,000 tested, about 20% had one in any assay.
measurement.name: growth (%)

>  <compound>
O=C(NCCNc1nccc(Nc2ccc(S(=O)(=O)Nc3ccccn3)cc2)n1)c1cccc([N+](=O)[O-])c1

>  <experimental.value>
84.7

$$$$
>  <compound>
O=C(/C=C/c1cccs1)Nc1ncc(Cc2ccccc2F)s1

>  <experimental.value>
26.1

$$$$
>  <compound>
NC(=O)c1cc(I)ccc1NC(=O)/C=C/c1ccccc1

>  <experimental.value>
1.87

$$$$
>  <compound>
CCN1C(=S)N(c2ccccc2)C2C1NN=c1s/c(=C3\C(=O)N(C(C)C)c4ccccc43)c(=O)n12 (stereo not given)

>  <experimental.value>
46.2

$$$$
>  <compound>
CC(=O)N1N=C(c2ccc(C(F)(F)F)c(F)c2)CC1c1[nH]c(C)c(C(=O)NCC(F)(F)F)c1C (stereo not given)

>  <experimental.value>
86.9

$$$$

----------
# Test system: EKVX NSCLC
# protocol.description: NCI-60 one-dose screen, 48 h (100 = growth as untreated, 0 = no growth, -100 = all killed)
# condition.summary: 10 µM unless noted
This is part of a sample that, as a whole, favours compounds with a hit. Of some 83,000 tested, about 20% had one in any assay.
# label = bin(measured growth), where bins are low: < 50%; intermediate: ≥ 50% and < 80%; high: ≥ 80%

>  <compound>
CSc1nc2ncc([N+](=O)[O-])c(=O)n2[nH]1

>  <class.name>
high

$$$$
>  <compound>
O=C(Nn1c2c(sc1=NC1CC1)C(=O)c1ccccc1C2=O)c1cc2ccc1CCc1ccc(cc1)CC2

>  <class.name>
intermediate

$$$$
>  <compound>
CCOc1ccccc1Cn1ccnc1CCc1c(Cl)c(O)cc(O)c1C(=O)OC

>  <class.name>
high

$$$$
>  <compound>
Oc1c(I)cc(I)cc1CNCc1ccccn1

>  <class.name>
low

$$$$
>  <compound>
NC(=O)c1c(NC(=O)c2ccc3ccccc3c2)sc2c1CCC(=O)C2

>  <class.name>
high

$$$$
>  <compound>
O=C(CN1C(=O)S/C(=C\C(Cl)=C\c2ccccc2)C1=O)NCCc1ccc(O)cc1

>  <class.name>
low

$$$$
>  <compound>
COC1/C=C/OC2(C)Oc3c(C)c(O)c4c(O)c(c(/C=N/Nc5ccc([N+](=O)[O-])cc5[N+](=O)[O-])c(O)c4c3C2=O)NC(=O)C(C)=C/C=C/C(C)C(O)C(C)C(O)C(C)C(OC(C)=O)C1C (stereo not given)

>  <class.name>
low

$$$$
>  <compound>
O=C(NNC(=O)c1ccc(NC(=O)c2ccccn2)cc1)Nc1ccc([N+](=O)[O-])cc1

>  <class.name>
high

$$$$
>  <compound>
O=C(/C=C/c1cccc(Cl)c1)c1ccc(Nc2nc(Nc3ccc(F)cc3)nc(Nc3ccc(Cl)cc3)n2)cc1

>  <class.name>
high

$$$$
>  <compound>
COc1ccc(/C=C/C(=O)c2cc3c(N)c(C(=O)Nc4cccc5ccccc45)sc3nc2C)cc1

>  <class.name>
high

$$$$
>  <compound>
CCCOC(=O)Nc1nc2ccc(SCC(C)C)cc2s1

>  <class.name>
intermediate

$$$$
>  <compound>
CCCCCCCCCCCCCCCCCCOc1ccccc1CC(=O)OCC[N+](C)(C)C

>  <class.name>
low

$$$$
>  <compound>
O=c1c2cccc3c(N4CCCC4)ccc(c32)c2nc3ccccc3n12

>  <class.name>
intermediate

$$$$
>  <compound>
COc1cc2ncnc(Nc3ccc(S(=O)(=O)Nc4cc(C)on4)cc3)c2cc1OCCCN1CCN(c2ccc(F)cc2)CC1

>  <class.name>
high

$$$$
>  <compound>
O=C(Nc1nc(-c2ccc(Cl)cc2)nc2c1sc(=S)n2-c1ccccc1)C(F)(F)F

>  <class.name>
intermediate

$$$$
>  <compound>
O=C1/C(=C\c2ccc3nccnc3c2)SC(=S)N1CCc1ccc(O)cc1

>  <class.name>
high

$$$$
>  <compound>
CC(C)Cn1cnc2c(=O)[nH]c(N)nc21

>  <class.name>
high

$$$$
>  <compound>
COc1cc2cc(NCc3cccc(Cl)c3)nc(C)c2cc1OC

>  <class.name>
intermediate

$$$$
>  <compound>
CSc1nc2ccccc2cc1/C=C1/C=C(c2ccccc2)NC1=O

>  <class.name>
high

$$$$
>  <compound>
COc1ccc(C(O)c2cc3c(N)c(C(=O)Nc4cccc(Br)c4)sc3nc2C)cc1 (stereo not given)

>  <class.name>
low

$$$$
>  <compound>
COc1ccc(/C=C/C(=O)c2cccc(OCCCCOc3cccc(C(=O)/C=C/c4ccc(OC)c(OC)c4)c3)c2)cc1OC

>  <class.name>
intermediate

$$$$
>  <compound>
Cc1ccc(Nc2cc(N)nc(N)n2)cc1Cl

>  <class.name>
intermediate

$$$$
>  <compound>
C=CCN=c1sc2c(n1NC(=O)c1cc3ccc1CCc1ccc(cc1)CC3)C(=O)c1ccccc1C2=O

>  <class.name>
low

$$$$
>  <compound>
C1CCC([PH+](C2CCCCC2)C2CCCCC2[PH+](C2CCCCC2)C2CCCCC2)CC1.[Au].[CH-]1CCCCC1C1CCCC[N-]1 (stereo not given)

>  <class.name>
low

$$$$
>  <compound>
O=C(/C=C/c1ccccc1)Nc1ncc(Cc2ccccc2Cl)s1

>  <class.name>
low

$$$$
>  <compound>
CCCCCCC12CCC(=O)N1CCc1cncn12 (stereo not given)

>  <class.name>
high

$$$$
>  <compound>
Oc1c(Br)cc(Br)c2ccc(Cn3cc(-c4ccccc4C(F)(F)F)nn3)nc12

>  <class.name>
high

$$$$
>  <compound>
COCCNC(=O)Nc1ccc2nc(-c3cccs3)c(-c3cccs3)nc2c1

>  <class.name>
high

$$$$
>  <compound>
c1csc(-c2ccc(CNc3c4ccccc4nc4ccccc34)cc2)c1

>  <class.name>
intermediate

$$$$
>  <compound>
COC(=O)c1cc(N=C2NC(=O)/C(=C/C=C/c3ccccc3)S2)ccc1O

>  <class.name>
intermediate

$$$$
>  <compound>
COC(=O)/C=C1/SC(=Nc2ccc(C(F)(F)F)cc2)N(CCc2c[nH]c3ccc(O)cc23)C1=O

>  <class.name>
low

$$$$
>  <compound>
Cc1c2cnccc2c(C)c2c1c1cc(C#N)ccc1n2C

>  <class.name>
low

$$$$
>  <compound>
CC(C)c1ccc(Cc2cnc(NC(=O)c3cc(Br)cs3)s2)cc1

>  <class.name>
low

$$$$
>  <compound>
CCCCNC(=O)CC1=C(C)/C(=C/c2[nH]c(-c3ccc[nH]3)cc2OC)N=C1C

>  <class.name>
low

$$$$
